readoutKind: log10 of IC50 (log10 of the value in nM)
Use the decimal logarithm of IC50 (nM).

// lookup log10 of IC50 | system=Acetylcholinesterase (Torpedo californica, UniProt P04058) | key= `CC(=O)/C(=C\c1ccc(O)cc1)C(=O)NCCCCCCNc1c2c(nc3ccccc13)CCCC2`
3.47

// lookup log10 of IC50 | system=Acetylcholinesterase (Torpedo californica, UniProt P04058) | key= COc1cc(CC(C(C)=O)C(=O)NCCCNc2c3c(nc4ccccc24)CCCC3)ccc1O (stereo unspecified)
3.76

// lookup log10 of IC50 | system=Acetylcholinesterase (Torpedo californica, UniProt P04058) | key= `COc1cc(/C=C(\C(C)=O)C(=O)NCCCCNc2c3c(nc4ccccc24)CCCC3)ccc1O`
3.32

// lookup log10 of IC50 | system=Acetylcholinesterase (Torpedo californica, UniProt P04058) | key= `CC(=O)CC(=O)NCCCCCCNc1c2c(nc3ccccc13)CCCC2`
2.76

// lookup log10 of IC50 | system=Acetylcholinesterase (Torpedo californica, UniProt P04058) | key= `CC(=O)/C(=C\c1ccc(O)cc1)C(=O)NCCCNc1c2c(nc3ccccc13)CCCC2`
3.98

// lookup log10 of IC50 | system=Acetylcholinesterase (Torpedo californica, UniProt P04058) | key= `COc1cc(/C=C(\C(C)=O)C(=O)NCCCNc2c3c(nc4ccccc24)CCCC3)ccc1O`
3.10
